Target: T1, human heterodimeric single-chain CD3εγ extracellular domain (human, UniProt P07766 23-126; P09693 23-116)
T1 construct: extracellular domain; Produced in-house; also called scCD3γε; human CD3ge
T1 sequence (P07766 23-126, chain 1 of 2): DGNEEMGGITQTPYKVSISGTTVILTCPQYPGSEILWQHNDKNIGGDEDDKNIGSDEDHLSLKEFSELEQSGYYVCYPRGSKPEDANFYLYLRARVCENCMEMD
T1 sequence (P09693 23-116, chain 2 of 2): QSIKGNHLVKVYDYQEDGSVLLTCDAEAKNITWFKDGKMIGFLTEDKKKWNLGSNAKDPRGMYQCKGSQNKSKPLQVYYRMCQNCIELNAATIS
Test: SPR, rabbit IgG captured, human single-chain CD3εγ ECD injected
Binary classification by kon, with 800000 M⁻¹ s⁻¹ as an inclusive lower bound for Condition met; all other cases are Condition not met.

binder="clone-06 (antibody, V domains shown, Recombinant rabbit IgG; also called Clone 6) VH: QSVEESGGRLVTPGTPLTLTCTVSGFPLSSYAMIWVRQAPGKGLEWIGMILRAGNIYYASWVKGRVTISKTSTTVDLKITSPTTEDTATYFCARRHYNREGYPIGIGDLWGPGTLVTVSS VL: AQVLTQTPSSVSAAVGGTVTISCQSSESVYNNKRLSWFQQKPGQPPKQLIYTASSLASGVPSRFKGSGSGTQFTLTISDLECDDAATYYCQGEFTCSNADCFTFGGGTEVVVKG" group="Condition not met"
binder="clone-02 (antibody, V domains shown, Recombinant rabbit IgG; also called Clone 2) VH: QSLEESGGRLVTPGTPLTLTCTVSGFPLSAYAMIWVRQAPGKGLEWIGMIIRSGTVYYANWAKGRFTISKTSTTVDLKITSPTTEDTATYFCARRHYNADGYPIGIGDLWGPGTLVTVSS VL: AQVLTQTPSSVSAVVGGTVTISCQSSESVYSNNRLSWFQQKPGQPPKLLIYSASTLASGVPSRFKGSGSGTQFTLTITDLECDDAATYFCQGEFSCSSVDCFSFGGGTEVVVKG" group="Condition met"
binder="clone-11 (antibody, V domains shown, Recombinant rabbit IgG) VH: QSLEESGGRLVTPGTPLTLTCTVSGFPLSSYAMGWFRQAPGKGLEWIGMILRADNTYYASWVNGRFTISKTSTTVDLKITSPTTEDTATYFCARRHYNTYGYPVAIGDLWGPGTLVTVSS VL: AQVLTQTPSSVSAAVGGTVTINCQSSQSVYNNNRLSWFQQKPGQPPKLLIYTASSLASGVPSRFKGSGSGTEFTLTISDLECADAATYYCQGEFSCSSADCFTFGGGTEVVVKG" group="Condition not met"
binder="clone-03 (antibody, V domains shown, Recombinant rabbit IgG; also called Clone 3) VH: QSLEESGGRLVTPGTPLTLTCTVSGFPLNRYAMLWVRQAPGKGLEWIGLITRADKKYYASWAKGRFTISKTSTTVDLEITGPTTEDTATYFCARRHYNTDGYPIAIGDLWGPGTLVTVSS VL: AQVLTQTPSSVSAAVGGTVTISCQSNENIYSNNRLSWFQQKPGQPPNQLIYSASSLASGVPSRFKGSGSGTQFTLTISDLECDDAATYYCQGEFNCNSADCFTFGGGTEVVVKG" group="Condition not met"
binder="clone-04 (antibody, V domains shown, Recombinant rabbit IgG; also called Clone 4) VH: QSLEESGGRLVKPDETLTLTCTVSGFPLSSYAMGWFRQAPGKGLEWIGMILRSDNTYYASWAKGRFTISKTSTTVDLKITSPTTEDTATYFCARRHYNASGNPIAIGDLWGPGTLVTVSS VL: AQVLTQTPSSVSAAVGGTVTINCQSSQSVYNNNRLSWFQQKPGQPPKLLIYTTSSLASGVPSRFKGSGSGTEFTLTISDLECADAATYYCQGEFSCSRADCFNFGGGTEVVVKG" group="Condition met"
binder="clone-10 (antibody, V domains shown, Recombinant rabbit IgG) VH: QSLEESGGRLVTPGTPLTLTCTVSGFPLSSFAMLWVRQAPGKGLEWIGMIMRAHNMYYASWAKGRFTISKTSTTVDLEITSPTTEDTATYFCARRHYNTYGYPIAIGDLWGPGTLVTVSS VL: AQVLTQTPSSVSAAVGGTATISCQSNENIYSNNRLSWFQQKAGQPPNQLIYSASSLASGVPSRFKGSGSGTQFTLTISDLECDDAATYYCQGEFSCSSADCFTFGGGTEVVVKG" group="Condition not met"

Sourced from patent US20180244777A1
